TESTED TARGET: Ret wt (Homo sapiens)
Construct: purchased Invitrogen PV3082
Sequence (P07949 29-1114): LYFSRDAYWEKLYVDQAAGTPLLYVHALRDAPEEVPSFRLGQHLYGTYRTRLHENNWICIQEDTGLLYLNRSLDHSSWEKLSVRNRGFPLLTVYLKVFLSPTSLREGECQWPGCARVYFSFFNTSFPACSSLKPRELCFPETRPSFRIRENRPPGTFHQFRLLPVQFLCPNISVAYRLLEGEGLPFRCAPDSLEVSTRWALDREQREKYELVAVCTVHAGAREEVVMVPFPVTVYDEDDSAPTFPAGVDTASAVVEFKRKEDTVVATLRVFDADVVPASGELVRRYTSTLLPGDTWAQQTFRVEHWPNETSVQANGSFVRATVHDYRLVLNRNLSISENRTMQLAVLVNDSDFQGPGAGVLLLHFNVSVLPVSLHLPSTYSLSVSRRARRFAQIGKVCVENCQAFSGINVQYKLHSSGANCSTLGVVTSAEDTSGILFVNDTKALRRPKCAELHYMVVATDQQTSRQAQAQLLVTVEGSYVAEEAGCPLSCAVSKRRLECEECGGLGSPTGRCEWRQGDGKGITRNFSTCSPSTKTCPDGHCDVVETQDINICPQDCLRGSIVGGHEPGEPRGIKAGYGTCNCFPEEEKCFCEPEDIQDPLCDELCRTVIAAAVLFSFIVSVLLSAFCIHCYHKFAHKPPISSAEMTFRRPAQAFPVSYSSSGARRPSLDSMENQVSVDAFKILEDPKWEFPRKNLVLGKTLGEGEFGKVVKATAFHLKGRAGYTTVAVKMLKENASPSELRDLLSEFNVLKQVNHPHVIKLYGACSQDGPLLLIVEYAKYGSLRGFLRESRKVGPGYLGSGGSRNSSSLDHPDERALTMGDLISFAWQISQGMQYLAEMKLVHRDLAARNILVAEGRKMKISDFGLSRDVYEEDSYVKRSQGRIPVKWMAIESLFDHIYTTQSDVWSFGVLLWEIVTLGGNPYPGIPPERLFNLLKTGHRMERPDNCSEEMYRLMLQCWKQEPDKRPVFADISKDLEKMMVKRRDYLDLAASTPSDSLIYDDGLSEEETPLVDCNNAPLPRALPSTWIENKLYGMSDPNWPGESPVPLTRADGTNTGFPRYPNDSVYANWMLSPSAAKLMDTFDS
ASSAY METHOD TEXT: HTRF kinase activity test, RET wild type
Type: biochemical
MEASUREMENT SETUP: Table 3; read-out: RET Enzyme (wild type) IC50
Exercise: state measured IC50 for each of the compounds provided.

Entry "Cn1cc(-c2cc(-c3ccc(N4CCC(Cc5ccccn5)CC4)nc3)c3c(C#N)c(N)nn3c2)cn1" under Ret wt (Homo sapiens) had IC50 of < 1 nM

Entry "CCOc1cc(-c2ccc(N3CC4CC(C3)N4Cc3ccc(OC)nc3)nc2)c2c(C#N)c(N)nn2c1" under Ret wt (Homo sapiens) had IC50 of < 1 nM

Entry "COc1ccc(CN2C3CC2CN(c2ccc(-c4cc(OCC(C)(C)O)cn5nc(N)c(C(N)=O)c45)cn2)C3)cn1" under Ret wt (Homo sapiens) had IC50 of 745 nM

Entry "COc1ccc(CN2CCN(c3ccc(-c4cc(-c5cnn(C)c5)cn5nc(NC(C)=O)c(C#N)c45)cn3)CC2)cn1" under Ret wt (Homo sapiens) had IC50 of 865 nM

Entry "COc1ccc(CN2C3CC2CN(c2ccc(-c4cc(OCC(C)(C)O)cn5nc(F)c(C#N)c45)cn2)C3)cn1" under Ret wt (Homo sapiens) had IC50 of 54 nM

Entry "Cn1cc(-c2cc(-c3ccc(N4CCN(Cc5cncc(F)c5)CC4)nc3)c3c(C#N)c(N)nn3c2)cn1" under Ret wt (Homo sapiens) had IC50 of 1 nM

Entry "CCOCCOc1cc(-c2ccc(N3CC4CC(C3)N4Cc3ccc(OC)nc3)nc2)c2c(C#N)c(N)nn2c1" under Ret wt (Homo sapiens) had IC50 of < 1 nM
